System: Wolbachia pipientis
Assay: Anti-Wolbachia Cell-Based Screen
Type: functional
Set-up: scale not given: in the data most compounds retested in dose-response had high values
Conditions: 5 µM
Screen size: about 48,000 compounds; about 13,000 (27%) showed an effect of 50% or more. The list shows a part of the results.
Reported Percent Effect values are given for each entry in this list.
Give just the number in %; leave the unit off.

Worked set:
> print(dat)
                                   compound  units.label  recorded.number
1  CCCC1(NC(=O)C(c2ccccc2C)N(C)C)CC1 (stereo not given)            %            5.158
2              CCN(Cc1csc(C)n1)c1cccc(CO)c1            %            19.84
3  CC[C@H](C)[C@H](N)C(=O)N1CC(=O)c2sc(Nc3ccc(F)cc3)nc2C1            %            106.2
4  CCc1ccc2c(c1)C(CCNC(=O)c1sccc1C)C(=O)N2 (stereo not given)            %          -0.3397
5  Cc1ccccc1C(NC(=O)CCCS(C)(=O)=O)C(C)(C)C (stereo not given)            %           -11.53

As a next step, examine the compound that follows.
Ask: Bench note: what Percent Effect did CCOc1ccc(CN(C)C(=O)c2nc(N3CCCC3)ncc2Cl)cc1 show?
Reply: 16.2

* * *

Let's look at some compounds and their measured Percent Effect.
Tested on: Wolbachia pipientis
Test: Anti-Wolbachia Cell-Based Screen
Assay type: functional
Design: scale not given: in the data most compounds retested in dose-response had high values
Settings: 5 µM
Out of some 48,000 compounds screened, about 13,000 (27%) showed an effect of 50% or more. The list shows a part of the results.

# annotated cases, reported Percent Effect shown
> print(dat)
                                   compound      value.type   result
1  CNc1cncc(C2CCCN2C(=O)Cn2c(=O)oc3ccccc32)n1 (centres undefined)  Percent Effect   88.17%
2  CCc1ccc(C2CC(=O)Nc3cc(NS(C)(=O)=O)ccc32)o1 (centres undefined)  Percent Effect   85.79%
3  COCC(=O)N1CCC(C(=O)N(C)C(C)c2ccon2)CC1 (centres undefined)  Percent Effect   2.013%
4  Cc1cccc(CO[C@H]2CN(c3nnc(C)s3)[C@@H]3CCCO[C@H]23)n1.O=C(O)C(F)(F)F.O=C(O)C(F)(F)F  Percent Effect  -4.881%
5  CNc1cncc(C2CCCN2C(=O)CCn2ccnc2C(C)C)n1 (centres undefined)  Percent Effect     103%

Ask: Endpoint output: Percent Effect of Cn1cc(C2CCCN2C(=O)CCn2ccc3ccccc32)cn1 (centres undefined) . Value?
Reply: 20.59%

Ask: Quick one: Percent Effect for CCc1ccc(C2CCCN2C(=O)CNC(=O)CCC(C)C)o1 (centres undefined) ?
Reply: 9.018%

* * *

System: Wolbachia pipientis
Experiment: Anti-Wolbachia Cell-Based Screen
Type: functional
Set-up: scale not given: in the data most compounds retested in dose-response had high values
Details: 5 µM
The whole screen tested about 48,000 compounds, of which about 13,000 (27%) showed an effect of 50% or more. The list shows a part of the results.
Listed here: items and their measured Percent Effect.
Just the number plus its unit, please.

Example results:
> print(dat)
                                   compound   result
1  CN(C)CC1CN(CCOc2cccc(C#N)c2)CCO1 (configuration not stated)  0.1863%
2  CN(Cc1nc(-c2ccco2)no1)C1CCCN(c2cccnn2)C1 (configuration not stated)   4.985%
3  CN(Cc1noc(C2CC2)n1)C1CCCN(c2cccnn2)C1 (configuration not stated)   100.2%
4  COCc1c(C(=O)N2CCCC(N(C)Cc3ccccc3)C2)noc1C (configuration not stated)    2.95%

Ask: Item CC(C)c1nc(CN(C)C2CCCN(c3cccnn3)C2)no1 (configuration not stated) has what recorded Percent Effect?
Reply: 109.3%

Ask: Item under review: CC(C)(C)c1nc(CNC2CCCN(c3cccnn3)C2)no1 (configuration not stated) . Reported Percent Effect?
Reply: -17.48%
